B1: RTN1 (parent)
chain: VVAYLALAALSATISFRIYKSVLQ

# Variants of: B1
# experiment.summary: protein stability index of a GFP-peptide fusion (GPS, HEK-293T) (PSI 1-6); higher = more stable;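 further: lentivirally expressed fusions sorted by FACS into six bins by GFP to DsRed ratio, PSI derived from sequencing read proportions per bin multiplied by bin number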
# experimental.conditions: c terminus: a fixed tail appended
property.measured: protein stability index
Number only, no unit.

Dear colleague, I am looking for the recorded protein stability index of the following variant: `F16N`
2.28

Follow-up item: `A12F`
2.85

Try this variant too: `Q24R`
3.71

Another variant to check: `V1I`
2.75

Record: `L5F`
3.22

Now consider `L23I` .
3.31

Would you kindly repeat that for `A6C` ?
2.86

What about `L7F` ?
2.47

Then this variant: `I14R`
3.01

Please answer likewise for `F16E`
1.76

One more variant: `Y19C`
2.46

Now give it for `A8H` too.
1.75

How about `S15M` ?
1.21

Entry to check: `S21F`
2.18

Please do the same for `V2Y` as well.
3

What about `Y4W` ?
1.9

Proceed to `T13F`
2.43

Follow-up entry: `A6T`
2.77

One more variant: `V2I`
1.66

Also `A12V` , if possible.
3.42

Same question, `I14N` this time
1.02

Request: `L10W`
2.44
